- System: Beet Armyworm (Spodoptera exigua, LAPHEG)
- ASSAY INFO: Bioassays on Beet Armyworm (BAW), 128-well diet tray assay
- Format: in vivo
- PROTOCOL CONDITIONS: Spodoptera exigua; Table ABC: Biological Results; species BAW; read-out: BAW
ASSAY ENDPOINT: pest or weed control at 50 µg/cm2

Challenge: Fill in: pest or weed control at 50 µg/cm2 of Nc1c(F)ccc(NC(=O)c2cc(NC(=O)[C@H]3[C@H](c4cccc(I)c4)C3(Cl)Cl)ccc2Cl)c1F (relative stereo) [F1141] is ___
Response given: 50 to 100%

Challenge: Fill blank: measured pest or weed control at 50 µg/cm2 of the molecule O=C(Nc1ccc(F)c(Br)c1F)c1cc(NC(=O)[C@H]2[C@H](c3cc(Cl)cc(Cl)c3)C2(Cl)Cl)ccc1Cl (relative stereo) [F1307] is ____.
Response given: 50 to 100%

Challenge: Name the recorded pest or weed control at 50 µg/cm2 for O=C(Nc1ccc(F)c(NC(=O)C(F)(F)Cl)c1F)c1cc(NC(=O)[C@H]2[C@H](c3ccc(Cl)c(Cl)c3)C2(Cl)Cl)ccc1Cl [F1248] .
Response given: 50 to 100%

====

- System: Yellow Fever Mosquito (Aedes aegypti, AEDSAE)
- Type: in vivo
- PROTOCOL CONDITIONS: Table ABC: Biological Results; species YFM
ASSAY ENDPOINT: YFM

Please review the following examples before continuing.
Challenge: Given the entry C=CCN(C(=O)c1cc(NC(=O)[C@H]2[C@H](c3ccc(F)c(C(F)(F)F)c3)C2(Cl)Cl)ccc1Cl)c1ccc(F)c(N)c1F (relative stereo) [F1113] , what YFM was observed with Yellow Fever Mosquito (Aedes aegypti, AEDSAE)?
Response given: A (80–100)

Challenge: Form field: YFM recorded for Nc1c(F)ccc(NC(=O)c2cc(NC(=O)[C@H]3[C@@H](c4cc(F)c(F)c(Br)c4)C3(Cl)Cl)ccc2Cl)c1F (relative stereo) [F1045] with Yellow Fever Mosquito (Aedes aegypti, AEDSAE) (enter value)
Response given: A (80–100)

Challenge: // map N#Cc1cc(F)ccc1N(Cc1ccccc1)C(=O)c1cc(NC(=O)[C@H]2[C@H](c3cc(Cl)cc(Cl)c3)C2(Cl)Cl)ccc1Cl (relative stereo) [F1099] to recorded YFM (system: Yellow Fever Mosquito (Aedes aegypti, AEDSAE))
Response given: A (80–100)

Challenge: Observed YFM on Yellow Fever Mosquito (Aedes aegypti, AEDSAE) for Cc1cc([C@@H]2[C@H](C(=O)Nc3ccc(Cl)c(C(=O)Nc4ccc(F)cc4F)c3)C2(Cl)Cl)cc(C(F)(F)F)c1F (relative stereo) [F1067] , please.
Response given: A (80–100)

Challenge: Query for Yellow Fever Mosquito (Aedes aegypti, AEDSAE): what YFM does the record show for Nc1c(F)ccc(NC(=O)c2cc(NC(=O)[C@H]3[C@H](c4cc(Cl)cc(C(F)(F)F)c4)C3(Cl)Cl)ccc2Cl)c1F (relative stereo) [F1127] ?
Response given: A (80–100)

Challenge: Lab note: need YFM for O=C(Nc1ccc(F)cc1)c1cc(NC(=O)[C@H]2[C@H](c3cc(Cl)cc(Cl)c3)C2(F)F)ccc1Cl (relative stereo) [F1057] on Yellow Fever Mosquito (Aedes aegypti, AEDSAE), anyone have it?
Response given: A (80–100)

Next:
Challenge: API: value(readout= YFM, system= Yellow Fever Mosquito (Aedes aegypti, AEDSAE), query= C=Cc1c(F)ccc(NC(=O)c2cc(NC(=O)[C@H]3[C@H](c4cc(Cl)cc(Cl)c4)C3(Cl)Cl)ccc2Cl)c1F (relative stereo) [F1314] )
Response given: A (80–100)

Challenge: Record lookup: for Yellow Fever Mosquito (Aedes aegypti, AEDSAE), what YFM belongs to O=C(Nc1ccc(F)cc1F)c1cc(NC(=O)[C@H]2[C@H](c3ccc(S(F)(F)(F)(F)F)cc3)C2(Cl)Cl)ccc1Cl (relative stereo) [F1089] ?
Response given: A (80–100)

Challenge: Tell me reported YFM for O=C(Nc1ccc(F)cc1F)c1cc(NC(=O)[C@H]2[C@H](c3cc(C(F)(F)F)ccc3Cl)C2(Cl)Cl)ccc1Cl (relative stereo) [F1004] , tested with Yellow Fever Mosquito (Aedes aegypti, AEDSAE).
Response given: A (80–100)

Challenge: Reported YFM for Yellow Fever Mosquito (Aedes aegypti, AEDSAE), given O=C(Nc1ccc(F)c(NC(=O)C(F)F)c1F)c1cc(NC(=O)[C@H]2[C@H](c3ccc(F)c(C(F)(F)F)c3)C2(Cl)Cl)ccc1Cl [F1175] ?
Response given: A (80–100)

Challenge: What measured YFM is associated with O=C(Nc1ccc(F)cc1F)c1cc(NC(=O)C2C(c3cc(Br)cc(S(F)(F)(F)(F)F)c3)C2(Cl)Cl)ccc1Cl (stereo not drawn) [F1032] on Yellow Fever Mosquito (Aedes aegypti, AEDSAE)?
Response given: A (80–100)

Challenge: Observed YFM on Yellow Fever Mosquito (Aedes aegypti, AEDSAE) for O=C(Nc1ccc(F)cc1F)c1cc(NC(=O)[C@H]2[C@H](c3cc(Cl)cc(S(F)(F)(F)(F)F)c3)C2(Cl)Cl)ccc1Cl (relative stereo) [F1232] , please.
Response given: A (80–100)

Challenge: Give Yellow Fever Mosquito (Aedes aegypti, AEDSAE) YFM for Nc1ccc(F)c(NC(=O)c2cc(NC(=O)[C@H]3[C@H](c4cc(Cl)cc(Cl)c4)C3(Cl)Cl)ccc2Cl)c1F (relative stereo) [F1026]
Response given: A (80–100)

Challenge: Lab note: need YFM with Yellow Fever Mosquito (Aedes aegypti, AEDSAE) for entry O=C(Nc1ccc(F)c(NC(=O)C2CC2(F)F)c1F)c1cc(NC(=O)[C@H]2[C@H](c3ccc(F)c(C(F)(F)F)c3)C2(Cl)Cl)ccc1Cl (stereo partly drawn) [F1275] , please look it up.
Response given: A (80–100)

Challenge: Item C#CCN(C(=O)c1cc(NC(=O)[C@H]2[C@H](c3ccc(F)c(C(F)(F)F)c3)C2(Cl)Cl)ccc1Cl)c1ccc(F)c(N)c1F (relative stereo) [F1114] with Yellow Fever Mosquito (Aedes aegypti, AEDSAE) - YFM?
Response given: A (80–100)

Challenge: Identify the measured YFM of Nc1c(F)ccc(NC(=O)c2cc(NC(=O)[C@H]3[C@H](c4cccc(S(F)(F)(F)(F)F)c4)C3(Cl)Cl)ccc2Cl)c1F (relative stereo) [F1143] for Yellow Fever Mosquito (Aedes aegypti, AEDSAE).
Response given: A (80–100)

Challenge: Record lookup: for Yellow Fever Mosquito (Aedes aegypti, AEDSAE), what YFM belongs to C=Cc1cc(F)ccc1NC(=O)c1cc(NC(=O)[C@H]2[C@H](c3cc(Cl)cc(Cl)c3)C2(Cl)Cl)ccc1Cl (relative stereo) [F1312] ?
Response given: A (80–100)

====

- Tested on: Yellow Fever Mosquito (Aedes aegypti, AEDSAE)
- Type: in vivo
- PROTOCOL CONDITIONS: Table ABC: Biological Results; species YFM
ASSAY ENDPOINT: YFM

Challenge: // returns reported YFM for input Cc1cc(NCc2ccc([N+](=O)[O-])cc2)ccc1NC(=O)c1cc(NC(=O)[C@H]2[C@H](c3cc(Cl)cc(Cl)c3)C2(Cl)Cl)ccc1Cl (relative stereo)
Response given: A (80–100)

Challenge: Record request: YFM value, item `CN(C(=O)C(F)F)c1c(F)ccc(NC(=O)c2cc(NC(=O)[C@H]3[C@H](c4ccc(F)c(C(F)(F)F)c4)C3(Cl)Cl)ccc2Cl)c1F`
Response given: A (80–100)

Challenge: Any idea what its YFM is? The compound is O=C(Nc1ccc(F)cc1F)c1cc(NC(=O)[C@H]2[C@H](c3cc(C(F)(F)F)cc(Cl)c3F)C2(Cl)Cl)ccc1Cl (relative stereo)
Response given: A (80–100)

====

- Tested on: Beet Armyworm (Spodoptera exigua, LAPHEG)
- ASSAY INFO: Bioassays on Beet Armyworm (BAW), 128-well diet tray assay
- Assay type: in vivo
- PROTOCOL CONDITIONS: Spodoptera exigua; Table ABC: Biological Results; species BAW; read-out: BAW
ASSAY ENDPOINT: pest or weed control at 50 µg/cm2

Challenge: Could you share which pest or weed control at 50 µg/cm2 value was measured for Nc1c(F)ccc(NC(=O)c2cc(NC(=O)[C@H]3[C@H](c4cc(Cl)c(F)c(Cl)c4)C3(Cl)Cl)ccc2Cl)c1F (relative stereo) ?
Response given: 50 to 100%

Challenge: Please report the recorded pest or weed control at 50 µg/cm2 for Cc1cc(NCc2ccc(C#N)cc2)ccc1NC(=O)c1cc(NC(=O)[C@H]2[C@H](c3cc(Cl)cc(Cl)c3)C2(Cl)Cl)ccc1Cl (relative stereo) .
Response given: 50 to 100%

Challenge: # input compound: O=C(Nc1ccc(F)cc1)c1c(F)ccc(NC(=O)[C@H]2[C@H](c3ccc(F)c(Cl)c3)C2(Cl)Cl)c1F (relative stereo) ; wanted: its pest or weed control at 50 µg/cm2
Response given: 50 to 100%

Challenge: Value lookup for pest or weed control at 50 µg/cm2; key = COc1c(Cl)cc(NC(=O)[C@H]2[C@H](c3ccc(F)c(Cl)c3)C2(Cl)Cl)cc1C(=O)Nc1ccc(F)c(N(C(=O)OC(C)(C)C)C(=O)OC(C)(C)C)c1F (relative stereo)
Response given: 0 to 50%

Challenge: # lookup: pest or weed control at 50 µg/cm2 of O=C(Nc1ccc(F)cc1F)c1cc(NC(=O)[C@H]2[C@H](c3cc(F)c(Cl)c(Cl)c3)C2(Cl)Cl)ccc1Cl (relative stereo)
Response given: 50 to 100%

Challenge: Sample CC(=O)Nc1ccc(NC(=O)c2cc(NC(=O)[C@H]3[C@H](c4ccc(F)c(Cl)c4)C3(Cl)Cl)cc(F)c2Cl)cc1 (relative stereo) — what was its pest or weed control at 50 µg/cm2?
Response given: 50 to 100%
